Would you mind telling me the reported IC50 of each entry?
# Target: 11-beta-hydroxysteroid dehydrogenase 1 (Mus musculus, UniProt P50172)
# Sequence (P50172 whole entry): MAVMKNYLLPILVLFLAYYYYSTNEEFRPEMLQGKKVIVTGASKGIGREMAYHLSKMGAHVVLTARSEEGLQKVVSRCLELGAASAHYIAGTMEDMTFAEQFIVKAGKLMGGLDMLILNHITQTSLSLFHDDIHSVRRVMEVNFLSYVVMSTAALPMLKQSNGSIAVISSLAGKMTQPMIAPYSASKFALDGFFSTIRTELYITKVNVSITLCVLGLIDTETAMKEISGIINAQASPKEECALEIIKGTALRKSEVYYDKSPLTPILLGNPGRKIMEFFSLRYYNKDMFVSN
# Protocol Details: Inhibition of mouse 11beta-HSD1 expressed in HEK293 cells assessed as inhibition of [3H]cortisone to [3H]cortisol conversion by SPA
API: value field is a number in µM; no unit string.

Output reported IC50 of the compound `CC(=O)O[C@@H]1[C@@H]2[C@H]([C@@H](OC(=O)c3cccnc3)[C@H](OC(=O)c3ccccc3)/C(C)=C/[C@@]34O[C@@]3(C[C@H](C)[C@@H]4OC(C)=O)C(=O)[C@@H]1C)C2(C)C` on 11-beta-hydroxysteroid dehydrogenase 1 (Mus musculus, UniProt P50172).
0.41

GET IC50 | system: 11-beta-hydroxysteroid dehydrogenase 1 (Mus musculus, UniProt P50172) | item: CCC(C)C(=O)O[C@@H]1[C@H]2[C@@H]([C@@H](OC(C)=O)[C@@H](C)C(=O)[C@@]34C[C@H](C)[C@H](O)[C@]3(/C=C(\C)[C@H]1OC(C)=O)O4)C2(C)C (stereo partly drawn)
6.4

With 11-beta-hydroxysteroid dehydrogenase 1 (Mus musculus, UniProt P50172) as the test system, provide measured IC50 for this compound: `C/C=C(/C)C(=O)O[C@@H]1/C(CO)=C/[C@@]23O[C@@]2(C[C@H](C)[C@@H]3OC(C)=O)C(=O)[C@H](C)[C@H](OC(C)=O)[C@@H]2[C@H]([C@H]1OC)C2(C)C`
12

====

# Target: UniProtKB P28845
# Sequence (P28845 whole entry, looked up): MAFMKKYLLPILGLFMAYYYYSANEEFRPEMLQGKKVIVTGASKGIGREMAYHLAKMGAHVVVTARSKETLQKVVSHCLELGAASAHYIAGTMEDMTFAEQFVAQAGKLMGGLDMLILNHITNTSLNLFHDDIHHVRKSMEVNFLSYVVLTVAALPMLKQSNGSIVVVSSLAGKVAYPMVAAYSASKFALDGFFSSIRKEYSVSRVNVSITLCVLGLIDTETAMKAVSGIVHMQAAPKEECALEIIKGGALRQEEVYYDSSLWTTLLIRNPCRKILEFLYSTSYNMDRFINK
# Protocol Details: Inhibition of human 11beta-HSD1 expressed in HEK293 cells assessed as inhibition of [3H]cortisone to [3H]cortisol conversion by SPA
# Type: cell-based
Activity calls are given as the source filed them. The calls are words filed in the database; no cut-off is given here.
Readout Kind: inhibition

INSERT INTO results (compound, readout_kind, value) VALUES
  ('C=C(C(=O)O[C@@H]1/C(C)=C/[C@@]23O[C@@]2(C[C@H](C)[C@@H]3OC(C)=O)C(=O)[C@H](C)[C@H](OC(C)=O)[C@@H]2[C@H]([C@H]1OC)C2(C)C)C(C)O (stereo partly drawn)', 'inhibition', 'inactive'),
  ('CCC(C)C(=O)O[C@@H]1[C@H]2[C@@H]([C@@H](OC(C)=O)[C@@H](C)C(=O)[C@@]34C[C@H](C)[C@H](OC(C)=O)[C@]3(/C=C(\C)[C@H]1O)O4)C2(C)C (stereo partly drawn)', 'inhibition', 'inactive'),
  ('C/C=C(/C)C(=O)O[C@@H]1/C(C)=C/[C@@]23O[C@@]2(C[C@H](C)[C@@H]3O)C(=O)[C@H](C)[C@H](OC(C)=O)[C@@H]2[C@H]([C@H]1OC)C2(C)C', 'inhibition', 'inactive');
